- Tested on: Streptococcus pyogenes
- Protocol Text: In vitro antimicrobial activity against Streptococcus pyogenes C203
- Assay type: functional
Observed Property: MIC (µg/mL)
Field format: number, assumed µg/mL, no unit text.

Requested read-out MIC, target or system Streptococcus pyogenes, entry CC[C@H]1OC(=O)C[C@@H](O)[C@H](C)[C@@H](O[C@@H]2O[C@H](C)[C@@H](O[C@H]3C[C@@](C)(O)[C@@H](O)[C@H](C)O3)[C@H](N(C)C)[C@H]2O)[C@@H](CCOc2cccc(N(C)C)c2)C[C@@H](C)C(=O)/C=C/C(C)=C/[C@@H]1CO[C@@H]1O[C@H](C)[C@@H](O)[C@@H](OC)[C@H]1OC
1

Recorded MIC for CC[C@H]1OC(=O)C[C@@H](O)[C@H](C)[C@@H](O[C@@H]2O[C@H](C)[C@@H](O)[C@H](N(C)C)[C@H]2O)[C@@H](CC=O)C[C@@H](C)C(=O)/C=C/C(C)=C/[C@@H]1CO with Streptococcus pyogenes, please?
0.25

###

- Test system: Cutibacterium acnes
- Protocol Text: In vitro antimicrobial activity against anaerobic bacteria propionibacterium acnes 79
- Assay type: functional
Observed Property: MIC (µg/mL)
// note: answer is a bare numeric in µg/mL

The following molecules have reported results that may help.
[
  {
    "Smiles Structure": "CC[C@H]1OC(=O)C[C@@H](O)[C@H](C)[C@@H](O[C@@H]2O[C@H](C)[C@@H](O)[C@H](N(C)C)[C@H]2O)[C@@H](CCN=[N+]=[N-])C[C@@H](C)C(=O)/C=C/C(C)=C/[C@@H]1CO[C@@H]1O[C@H](C)[C@@H](O)[C@@H](OC)[C@H]1OC",
    "MIC, µg/mL": 16
  },
  {
    "Smiles Structure": "CC[C@H]1OC(=O)C[C@@H](O)[C@H](C)[C@@H](O[C@@H]2O[C@H](C)[C@@H](O)[C@H](N(C)C)[C@H]2O)[C@@H](CCCl)C[C@@H](C)C(=O)/C=C/C(C)=C/[C@@H]1CO[C@@H]1O[C@H](C)[C@@H](O)[C@@H](OC)[C@H]1OC",
    "MIC, µg/mL": 16
  },
  {
    "Smiles Structure": "CC[C@H]1OC(=O)C[C@@H](O)[C@H](C)[C@@H](O[C@@H]2O[C@H](C)[C@@H](O[C@H]3C[C@@](C)(O)[C@@H](O)[C@H](C)O3)[C@H](N(C)C)[C@H]2O)[C@@H](CC=O)C[C@@H](C)C(=O)/C=C/C(C)=C/[C@@H]1CO",
    "MIC, µg/mL": 0.25
  }
]

Endpoint output: MIC of CC[C@H]1OC(=O)C[C@@H](O)[C@H](C)[C@@H](O[C@@H]2O[C@H](C)[C@@H](O[C@H]3C[C@@](C)(O)[C@@H](O)[C@H](C)O3)[C@H](N(C)C)[C@H]2O)[C@@H](CC=O)C[C@@H](C)C(=O)/C=C/C(C)=C/[C@@H]1CO[C@@H]1O[C@H](C)[C@@H](O)[C@@H](OC)[C@H]1OC . Value?
0.5

Query: MIC; subject: CC[C@H]1OC(=O)C[C@@H](O)[C@H](C)[C@@H](O[C@@H]2O[C@H](C)[C@@H](O)[C@H](N(C)C)[C@H]2O)[C@@H](CC=O)C[C@@H](C)C(=O)/C=C/C(C)=C/[C@@H]1CO[C@@H]1O[C@H](C)[C@@H](O)[C@@H](OC)[C@H]1OC
2

Sample CC[C@H]1C[C@@H](C)C(=O)/C=C/C(C)=C/[C@H](CO[C@@H]2O[C@H](C)[C@@H](O)[C@@H](OC)[C@H]2OC)[C@@H](CC)OC(=O)C[C@@H](O)[C@H](C)[C@H]1O[C@@H]1O[C@H](C)[C@@H](O)[C@H](N(C)C)[C@H]1O — what was its MIC?
8

For the molecule CC[C@H]1OC(=O)C[C@@H](O)[C@H](C)[C@@H](O[C@@H]2O[C@H](C)[C@@H](O)[C@H](N(C)C)[C@H]2O)[C@@H](CCO)C[C@@H](C)C(=O)/C=C/C(C)=C/[C@@H]1CO , what MIC is on record?
4

Look up MIC for this molecule: CC[C@H]1OC(=O)C[C@@H](O)[C@H](C)[C@@H](O[C@@H]2O[C@H](C)[C@@H](O)[C@H](N(C)C)[C@H]2O)[C@@H](CCOc2ccccc2)C[C@@H](C)C(=O)/C=C/C(C)=C/[C@@H]1CO[C@@H]1O[C@H](C)[C@@H](O)[C@@H](OC)[C@H]1OC
8

Query: MIC; subject: CC[C@H]1OC(=O)C[C@@H](O)[C@H](C)[C@@H](O[C@@H]2O[C@H](C)[C@@H](O[C@H]3C[C@@](C)(O)[C@@H](O)[C@H](C)O3)[C@H](N(C)C)[C@H]2O)[C@@H](CCO)C[C@@H](C)C(=O)/C=C/C(C)=C/[C@@H]1CO[C@@H]1O[C@H](C)[C@@H](O)[C@@H](OC)[C@H]1OC
8

# input molecule: CC[C@H]1OC(=O)C[C@@H](O)[C@H](C)[C@@H](O[C@@H]2O[C@H](C)[C@@H](O)[C@H](N(C)C)[C@H]2O)[C@@H](CC=O)C[C@@H](C)C(=O)/C=C/C(C)=C/[C@@H]1CO ; wanted: its MIC
8

Recorded MIC of CC[C@H]1C[C@@H](C)C(=O)/C=C/C(C)=C/[C@H](CO)[C@@H](CC)OC(=O)C[C@@H](O)[C@H](C)[C@H]1O[C@@H]1O[C@H](C)[C@@H](O)[C@H](N(C)C)[C@H]1O , please.
2

###

- Test system: Streptococcus pyogenes
- Protocol Text: In vitro antimicrobial activity against Streptococcus pyogenes C203
- Format: functional
Observed Property: MIC (µg/mL)
Field: numeric (µg/mL). Do not append units.

Examples from the recorded data:
[
  {
    "Smiles Structure": "CC[C@H]1OC(=O)C[C@@H](O)[C@H](C)[C@@H](O[C@@H]2O[C@H](C)[C@@H](O)[C@H](N(C)C)[C@H]2O)[C@@H](CCOc2ccc([N+](=O)[O-])cc2)C[C@@H](C)C(=O)/C=C/C(C)=C/[C@@H]1CO[C@@H]1O[C@H](C)[C@@H](O)[C@@H](OC)[C@H]1OC",
    "Target Or Test System": "Streptococcus pyogenes",
    "Observed Property": "MIC",
    "Unit Name": "µg/mL",
    "Value Observed": 1
  },
  {
    "Smiles Structure": "CC[C@H]1OC(=O)C[C@@H](O)[C@H](C)[C@@H](O[C@@H]2O[C@H](C)[C@@H](O)[C@H](N(C)C)[C@H]2O)[C@@H](CCCl)C[C@@H](C)C(=O)/C=C/C(C)=C/[C@@H]1CO[C@@H]1O[C@H](C)[C@@H](O)[C@@H](OC)[C@H]1OC",
    "Target Or Test System": "Streptococcus pyogenes",
    "Observed Property": "MIC",
    "Unit Name": "µg/mL",
    "Value Observed": 0.25
  },
  {
    "Smiles Structure": "CC[C@H]1OC(=O)C[C@@H](O)[C@H](C)[C@@H](O[C@@H]2O[C@H](C)[C@@H](O[C@H]3C[C@@](C)(O)[C@@H](O)[C@H](C)O3)[C@H](N(C)C)[C@H]2O)[C@@H](CCOc2ccc(OC(C)=O)cc2)C[C@@H](C)C(=O)/C=C/C(C)=C/[C@@H]1CO[C@@H]1O[C@H](C)[C@@H](O)[C@@H](OC)[C@H]1OC",
    "Target Or Test System": "Streptococcus pyogenes",
    "Observed Property": "MIC",
    "Unit Name": "µg/mL",
    "Value Observed": 0.5
  }
]

Entry CC[C@H]1OC(=O)C[C@@H](O)[C@H](C)[C@@H](O[C@@H]2O[C@H](C)[C@@H](O)[C@H](N(C)C)[C@H]2O)[C@@H](CCOc2ccc(CN3CCCCCC3)cc2)C[C@@H](C)C(=O)/C=C/C(C)=C/[C@@H]1CO[C@@H]1O[C@H](C)[C@@H](O)[C@@H](OC)[C@H]1OC has what MIC?
0.5

###

- Tested on: Staphylococcus aureus
- Protocol Text: In vitro antimicrobial activity against aerobic bacteria Staphylococcus aureus X400
- Type: functional
Here the recorded MIC is given for each entry.

[
  {
    "Smiles Structure": "CC[C@H]1OC(=O)C[C@@H](O)[C@H](C)[C@@H](O[C@@H]2O[C@H](C)[C@@H](O)[C@H](N(C)C)[C@H]2O)[C@@H](CCOc2ccc(C(=O)c3ccccc3)cc2)C[C@@H](C)C(=O)/C=C/C(C)=C/[C@@H]1CO[C@@H]1O[C@H](C)[C@@H](O)[C@@H](OC)[C@H]1OC",
    "MIC": "0.25 µg/mL"
  },
  {
    "Smiles Structure": "CC[C@H]1OC(=O)C[C@@H](O)[C@H](C)[C@@H](O[C@@H]2O[C@H](C)[C@@H](O)[C@H](N(C)C)[C@H]2O)[C@@H](CC=O)C[C@@H](C)C(=O)/C=C/C(C)=C/[C@@H]1CO",
    "MIC": "2 µg/mL"
  },
  {
    "Smiles Structure": "CC[C@H]1OC(=O)C[C@@H](O)[C@H](C)[C@@H](O[C@@H]2O[C@H](C)[C@@H](O)[C@H](N(C)C)[C@H]2O)[C@@H](CCN=[N+]=[N-])C[C@@H](C)C(=O)/C=C/C(C)=C/[C@@H]1CO[C@@H]1O[C@H](C)[C@@H](O)[C@@H](OC)[C@H]1OC",
    "MIC": "0.25 µg/mL"
  }
]

# evaluate next
For Staphylococcus aureus, provide MIC of CC[C@H]1OC(=O)C[C@@H](O)[C@H](C)[C@@H](O[C@@H]2O[C@H](C)[C@@H](O[C@H]3C[C@@](C)(O)[C@@H](O)[C@H](C)O3)[C@H](N(C)C)[C@H]2O)[C@@H](CCOc2ccccc2)C[C@@H](C)C(=O)/C=C/C(C)=C/[C@@H]1CO[C@@H]1O[C@H](C)[C@@H](O)[C@@H](OC)[C@H]1OC please.
2 µg/mL
